Target: Pantothenate synthetase (Mycobacterium tuberculosis (strain ATCC 25618 / H37Rv))
Assay: Coupled enzyme confirmation of inhibitors against recombinant Mtb PanC (AID 375);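 also: 0% = full reaction with vehicle and 100% = no enzyme background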
Settings: coupled enzyme assay; at 10 µM, hits give high values
measurement label: inhibition (%)
Reply with just the number (in %).

Just so you know, measured inhibition for CCCCn1cnc2c1c(=O)n(C)c(=O)n2C came out at 2

Sample COc1ccc(N(C)C(=O)CCS(=O)(=O)c2cccc3nonc23)c(OC)c1 ; inhibition observed: 0

Lab book: inhibition of CC1(C)Cc2cccc(OCC(=O)O)c2O1 noted as 5

Record O=C(CN(Cc1ccco1)C(=O)c1cc(=O)[nH]c2ccccc12)Nc1ccccc1Br , field inhibition: 0

Data point: Cc1cc(NC(=O)CCCN2C(=O)c3cccnc3C2=O)no1 ; inhibition = 0

Briefly, inhibition measured for Nn1c(SCC(=O)Nc2ccc3c(c2)OCO3)nnc1C1CC1 : 4

Input CCOc1ccc(C2/C(=C(/O)c3ccccc3)C(=O)C(=O)N2CCCN(C)C)cc1OC (stereo not given) . Output inhibition: 0

Field inhibition (entry O=C(NCCC1=CCCCC1)C1CCN(S(=O)(=O)c2cccc3cccnc23)CC1 ) reads 19

Kindly note the recorded inhibition for O=C(CN(C(=O)CCNC(=O)c1ccco1)c1ccccc1)NC1CCCC1 , which is 2

Reported inhibition ( COc1ccc(OCC(=O)Nc2cccc3ncccc23)cc1 ) = 2

Documented inhibition of O=C(Oc1cc2oc(=O)c3c(c2cc1Cl)CCCC3)c1ccco1 : 0

Looking up CCN(CC)CCn1c2ccccc2c2nc(C)sc21 , I found its inhibition recorded as 1

GET /value?item= O=C(NCC(=O)N(c1ccc2c(c1)OCCO2)C(C(=O)NC1CCCC1)c1ccco1)c1ccco1 (stereo not given) &field=inhibition returns 6

Recorded inhibition (compound O=C(CSc1ccc2nnc(-c3ccccc3)n2n1)N1CCN(c2ccccc2)CC1 ): 1

Briefly, inhibition measured for CC1=C(C(=O)OCCOC(C)C)C(c2cc3c(cc2Br)OCO3)C2=C(CCCC2=O)N1 (stereo not given) : 0

Lab note: CSc1ccc(CNC2CN3CCC2CC3)cc1 (stereo not given) gave inhibition of 0

The compound listed as Cc1ccc(NC(=O)CC2Nc3ccccc3NC2=O)cc1Cl (stereo not given) shows inhibition equal to 0

response.value for Cc1nnc(SCC(=O)N2CC(=O)Nc3ccccc32)n1-c1ccccc1 (field: inhibition) = 2

// inhibition lookup, compound = COC(=O)c1cc(=O)n(Cc2ccc3c(c2)OCO3)c(=Nc2ccccc2)s1 , result: 7

CCN(CC)CC(=O)Nc1ccc(-c2nc3cc(NC(=O)CN(CC)CC)ccc3o2)cc1 has a reported inhibition of 7

So, CCOC(=O)Cn1nnnc1CN(Cc1ccc(OC)cc1)Cc1cc2cc(C)ccc2[nH]c1=O ? Its inhibition was 1

inhibition measured on CCN(C(=O)c1c(OC)cccc1OC)c1nnc(-c2cccnc2)s1 = 0

Entry Cc1ccc(S(=O)(=O)N2CCN(S(C)(=O)=O)C2c2ccccc2)cc1 (stereo not given) — recorded inhibition = 0

For this compound ( c1ccc(CSCc2cn3ccsc3n2)cc1 ), measured inhibition is 0

// inhibition value for CC(NC(=O)c1ccco1)C(c1cccs1)N1CCN(c2ccc(F)cc2)CC1 (stereo not given) : 0

Form field inhibition, entry CN(C)c1ccc(C(=O)Nc2nnc(-c3ccc(Cl)cc3)o2)cc1 : 0

Form field inhibition, entry Cc1ccc(-c2noc(CCC(=O)NC3CCCc4ccccc43)n2)cc1 (stereo not given) : 2

The compound listed as CCOC(=O)C1CCN(C(=O)Nc2ccc3snnc3c2)CC1 shows inhibition equal to 6

Briefly, inhibition measured for Cc1noc(C)c1CSc1ccccc1C(=O)N1CCN(c2ccccc2)CC1 : 0

For this compound ( COc1ccc(-c2nnc(SCC(=O)Nc3ccc(Cl)cc3)n2C)cc1 ), measured inhibition is 0

Looking up CCOC(=O)CSc1nnc(-c2ccccc2OC)o1 , I found its inhibition recorded as 0

Field inhibition (entry COc1ccc(-c2c(=O)n(OCc3ccccn3)c3ccccc3[n+]2[O-])cc1OC ) reads 3

Form field inhibition, entry Cc1nc(Sc2cccn2C)c(C(F)(F)F)c(=O)[nH]1 : 0

Sure, the documented inhibition for CCc1nn(CC(=O)N2CCN(Cc3ccc4c(c3)OCO4)CC2)c(=O)c2cc3occc3n12 is 5

// Cc1cccc(N2CCN(C(=O)c3cc4c(=O)[nH]c5ccccc5c4n3C)CC2)c1C : inhibition value = 7

Entry under test: Nc1ccc(S(=O)(=O)NC(=O)c2ccccc2)cc1 . Its inhibition was 0

The compound identified as CC(OC(=O)c1cccc(NS(C)(=O)=O)c1)C(=O)Nc1ccc(N2CCOCC2)cc1 (stereo not given) registered its inhibition at 0

inhibition for c1cncc(-c2nnc3sc(-c4ccco4)nn23)c1 is 0

Per the records, this compound ( c1cn2cc(CSC3CCCCC3)nc2s1 ) has inhibition equal to 2

Record Cc1cc(CN2CCN(CCC#N)CC2)c(O)c(C2(C)CCCCC2)c1 , field inhibition: 0

Quick note, inhibition for N/C(=N/O)c1nc(N2CCCCC2)nc(N2CCCCC2)n1 landed at 0

Reported inhibition of COc1ccc(-c2nnc(SCC(=O)Nc3cc(C)on3)n2C)cc1OC : 5

GET /value?item= Nc1nc2c(ncn2COCCO)c(=O)[nH]1 &field=inhibition returns 0

Data point: c1ccc(-c2oc3ncnc(NCCN4CCOCC4)c3c2-c2ccccc2)cc1 ; inhibition = 4

Entry O=C(O)CCc1ccc(-c2ccc(Br)cc2)n1CC(=O)O , inhibition reported as 0
